- System: 349418-098-R tumor spheroid viability
- METHOD NOTES: Anticancer human tumor 349418-098-R patient-derived lung adenocarcinoma cell line growth inhibition; active = viability on the fitted dose curve at most 10% of control; inactive = the rest
- CONDITION: second compound 0.00949 µM; first compound 3 µM; spheroids with HUVEC and MSC
Write down the outcome that applies. Available outcomes: active, inactive

Asked: // param item: O=C(c1cc(Cc2n[nH]c(=O)c3ccccc23)ccc1F)N1CCN(C(=O)C2CC2)CC1 + CC[C@@]1(O)C(=O)OCc2c1cc1n(c2=O)Cc2cc3c(CN(C)C)c(O)ccc3nc2-1 ; yields the recorded call
Given back: inactive

Asked: Hi, do you know how Cc1sc2c(c1C)C(c1ccc(Cl)cc1)=NC(CC(=O)Nc1ccc(O)cc1)c1nnc(C)n1-2 (centres undefined) + CC[C@@]1(O)C(=O)OCc2c1cc1n(c2=O)Cc2cc3c(CN(C)C)c(O)ccc3nc2-1 came out in this test?
Given back: active

Asked: Would you mind telling me which call this test gave CNCc1ccc(-c2cc(-c3nc(-c4ccc(S(=O)(=O)C(C)C)cc4)cnc3N)on2)cc1 + CC[C@@]1(O)C(=O)OCc2c1cc1n(c2=O)Cc2cc3c(CN(C)C)c(O)ccc3nc2-1 ?
Given back: active

Asked: Called result for Cn1ncnc1[C@H]1c2n[nH]c(=O)c3cc(F)cc(c23)N[C@@H]1c1ccc(F)cc1 + CC[C@@]1(O)C(=O)OCc2c1cc1n(c2=O)Cc2cc3c(CN(C)C)c(O)ccc3nc2-1
Given back: active

----------
- Test system: 349418-098-R tumor spheroid viability
- METHOD NOTES: Anticancer human tumor 349418-098-R cell line growth inhibition;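 also: spheroids exposed to compound for 7 days before measurement; percent of vehicle control viability with 100% = DMSO-treated spheroids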
- CONDITION: second compound 94.9 pM; first compound 3.16 µM; hits give low values; spheroids with HUVEC and MSC
Assign viability, T/C to each entry below.

Asked: Give me measured viability, T/C, please, for this molecule: COc1ccc([C@@H](O)c2cc(-c3ncnc4cc(N5CCOCC5)ccc34)c(F)cc2Cl)nn1 + COc1cc2c(cc1O)CCNC21CSC2c3c(OC(C)=O)c(C)c4c(c3C(COC1=O)N1C(O)C3Cc5cc(C)c(OC)c(O)c5C(C21)N3C)OCO4
Given back: 56.3%

Asked: For the molecule COc1cc(C)[nH]c(=O)c1CN1CCc2c(Cl)cc(C(OC)C3COC3)c(Cl)c2C1=O (centres undefined) + COc1cc2c(cc1O)CCNC21CSC2c3c(OC(C)=O)c(C)c4c(c3C(COC1=O)N1C(O)C3Cc5cc(C)c(OC)c(O)c5C(C21)N3C)OCO4 , report viability, T/C.
Given back: 90.8%

Asked: Give viability, T/C for CC(C)n1c(=O)n(C)c2cnc3cc(F)c(-c4ccc(OCCCN5CCCCC5)nc4)cc3c21 + COc1cc2c(cc1O)CCNC21CSC2c3c(OC(C)=O)c(C)c4c(c3C(COC1=O)N1C(O)C3Cc5cc(C)c(OC)c(O)c5C(C21)N3C)OCO4
Given back: 94.6%

Asked: Assign viability, T/C to the following record: CC1COCCN1c1cc(-c2ccnn2C)c2ccnc(-c3ccn[nH]3)c2n1 (centres undefined) + COc1cc2c(cc1O)CCNC21CSC2c3c(OC(C)=O)c(C)c4c(c3C(COC1=O)N1C(O)C3Cc5cc(C)c(OC)c(O)c5C(C21)N3C)OCO4
Given back: 12.4%

----------
- Test system: 349418-098-R tumor spheroid viability
- METHOD NOTES: Anticancer human tumor 349418-098-R cell line growth inhibition;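 also: spheroids exposed to compound for 7 days before measurement; percent of vehicle control viability with 100% = DMSO-treated spheroids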
- CONDITION: second compound 0.3 µM; first compound 0.316 µM; hits give low values; spheroids with HUVEC and MSC
READOUT TYPE: viability, T/C (%)
Reply with just the number (in %).

Asked: Quick one: give measured viability, T/C for [2H]c1nc(C)nc([2H])c1-c1cc(NC[C@@H](C)c2cccc3c(C(=O)NC)ccnc23)ncn1 + CC[C@@]1(O)C(=O)OCc2c1cc1n(c2=O)Cc2cc3c(CN(C)C)c(O)ccc3nc2-1
Given back: 4.91

Asked: Report viability, T/C for Cc1cc(C)c(CNC(=O)c2cc(-c3ccc(CN4CCOCC4)cc3)cc3c2cnn3C2CCCC2)c(=O)[nH]1 + CC[C@@]1(O)C(=O)OCc2c1cc1n(c2=O)Cc2cc3c(CN(C)C)c(O)ccc3nc2-1
Given back: 3.1

Asked: Please report viability, T/C for the following compound: COc1ccc([C@@H](O)c2cc(-c3ncnc4cc(N5CCOCC5)ccc34)c(F)cc2Cl)nn1 + CC[C@@]1(O)C(=O)OCc2c1cc1n(c2=O)Cc2cc3c(CN(C)C)c(O)ccc3nc2-1
Given back: 4.59

Asked: Hello, please tell me recorded viability, T/C for this one: COc1cc(C)[nH]c(=O)c1CN1CCc2c(Cl)cc(C(OC)C3COC3)c(Cl)c2C1=O (stereo unspecified) + CC[C@@]1(O)C(=O)OCc2c1cc1n(c2=O)Cc2cc3c(CN(C)C)c(O)ccc3nc2-1
Given back: 4.96

Asked: Supply reported viability, T/C belonging to this compound: CC1COCCN1c1cc(-c2ccnn2C)c2ccnc(-c3ccn[nH]3)c2n1 (stereo unspecified) + CC[C@@]1(O)C(=O)OCc2c1cc1n(c2=O)Cc2cc3c(CN(C)C)c(O)ccc3nc2-1
Given back: 2.76

Asked: Assign viability, T/C to the following record: CC(C)n1c(=O)n(C)c2cnc3cc(F)c(-c4ccc(OCCCN5CCCCC5)nc4)cc3c21 + CC[C@@]1(O)C(=O)OCc2c1cc1n(c2=O)Cc2cc3c(CN(C)C)c(O)ccc3nc2-1
Given back: 5.74
